From: patent US8580747B2

tested_on: NEP (neutral endopeptidase) (Homo sapiens)
Construct: purchased R&D Systems, Minneapolis, Minn; 1182-ZN
Sequence (P08473 52-750 limits assumed): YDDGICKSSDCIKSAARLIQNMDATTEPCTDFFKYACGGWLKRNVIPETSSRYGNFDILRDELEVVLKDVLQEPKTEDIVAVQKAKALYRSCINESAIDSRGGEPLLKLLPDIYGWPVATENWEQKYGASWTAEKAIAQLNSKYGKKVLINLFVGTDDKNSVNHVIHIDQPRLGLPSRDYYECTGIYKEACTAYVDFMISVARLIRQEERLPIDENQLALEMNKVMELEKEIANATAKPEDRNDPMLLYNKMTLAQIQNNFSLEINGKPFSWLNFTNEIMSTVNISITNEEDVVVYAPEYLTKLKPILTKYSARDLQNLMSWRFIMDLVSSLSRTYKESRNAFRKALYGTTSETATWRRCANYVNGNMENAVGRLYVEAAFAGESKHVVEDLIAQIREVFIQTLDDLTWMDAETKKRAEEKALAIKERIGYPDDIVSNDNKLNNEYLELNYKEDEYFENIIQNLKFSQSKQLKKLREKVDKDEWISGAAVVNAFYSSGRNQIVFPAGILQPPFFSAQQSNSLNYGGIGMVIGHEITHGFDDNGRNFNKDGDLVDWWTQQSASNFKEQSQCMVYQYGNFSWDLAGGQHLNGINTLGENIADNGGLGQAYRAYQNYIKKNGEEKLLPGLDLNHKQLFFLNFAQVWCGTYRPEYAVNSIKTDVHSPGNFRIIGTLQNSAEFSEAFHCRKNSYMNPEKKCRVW
method_summary: hNEP resistance assay (digestion by neutral endopeptidase)
Format: in vitro ADME
stated_conditions: human recombinant NEP (neutral endopeptidase), pH 7.4; incubation with human recombinant NEP at 37° C., 2 h; read-out: hNEP % of Starting Material 2 h
Bridge positions count the residues as written; N and C are the ends. Square brackets hold non-standard residues; d marks the D form. Peptide text beside a SMILES is read from it. * marks the point of attachment. Piperazin2one(3S-Bu,6R-CO) = CCCC[C@@H]1NC[C@H](C(=O)*)NC1=O; X2 = N=C(N)NCCC[C@@H]1C(=O)N[C@@H](C(N)=O)CN1*; X1 = N=C(N)NCCC[C@H]1C(=O)N[C@@H](C(N)=O)CN1*; dNle = CCCC[C@@H](N)C(=O)O; Nle = CCCC[C@H](N)C(=O)O; Orn = NCCC[C@H](N)C(=O)O
Would you mind telling me the reported remaining at 2 h, 50 µM of each entry?
Answer format: numeric, % implied, no suffix.

Record request: remaining at 2 h, 50 µM value, item CCCC[C@@H]1NC[C@H](C(=O)N[C@H]2CSSC[C@@H](C(=O)N[C@@H](Cc3ccc(O)cc3)C(=O)N3C[C@H](C(N)=O)NC(=O)[C@@H]3CCCNC(=N)N)NC(=O)[C@H](CO)NC(=O)[C@H]([C@@H](C)CC)NC(=O)[C@H](CCCNC(=N)N)NC(=O)[C@H](CC(=O)O)NC(=O)[C@H](CCCC)NC(=O)[C@H](CCCN)NC(=O)CNC(=O)CNC(=O)[C@H](Cc3ccccc3)NC(=O)[C@H](Cc3c[nH]cn3)NC2=O)NC1=O [1-54] ({Piperazin2one(3S-Bu,6R-CO)}-CHFGG[Orn][Nle]DRISCY-X1; disulfide 1-12)
82

Record request: remaining at 2 h, 50 µM value, item CCCC[C@@H]1NC[C@H](C(=O)N[C@H]2CSSC[C@@H](C(=O)N[C@@H](Cc3ccc(O)cc3)C(=O)N3C[C@H](C(N)=O)NC(=O)[C@@H]3CCCNC(=N)N)NC(=O)[C@H](CO)NC(=O)[C@H]([C@@H](C)CC)NC(=O)[C@H](C)NC(=O)[C@H](CC(=O)O)NC(=O)[C@H](CCCC)NC(=O)[C@H](C)NC(=O)CNC(=O)CNC(=O)[C@H](Cc3ccccc3)NC(=O)[C@H](Cc3c[nH]cn3)NC2=O)NC1=O [1-100] ({Piperazin2one(3S-Bu,6R-CO)}-CHFGGA[Nle]DAISCY-X1; disulfide 1-12)
0

Record request: remaining at 2 h, 50 µM value, item CCCC[C@@H]1NC[C@H](C(=O)N[C@H]2CSSC[C@@H](C(=O)N[C@@H](Cc3ccc(O)cc3)C(=O)N3C[C@H](C(N)=O)NC(=O)[C@@H]3CCCNC(=N)N)NC(=O)[C@H](CO)NC(=O)[C@H]([C@@H](C)CC)NC(=O)[C@H](CCCN)NC(=O)[C@H](CC(=O)O)NC(=O)[C@H](CCCC)NC(=O)[C@H](CCCNC(=N)N)NC(=O)CNC(=O)CNC(=O)[C@H](Cc3ccccc3)NC(=O)[C@H](Cc3c[nH]cn3)NC2=O)NC1=O [1-55] ({Piperazin2one(3S-Bu,6R-CO)}-CHFGGR[Nle]D[Orn]ISCY-X1; disulfide 1-12)
70

Record request: remaining at 2 h, 50 µM value, item CCCC[C@@H]1NC[C@H](C(=O)N[C@H]2CSSC[C@@H](C(=O)N[C@@H](Cc3ccc(O)cc3)C(=O)N3C[C@H](C(N)=O)NC(=O)[C@H]3CCCNC(=N)N)NC(=O)[C@H](CO)NC(=O)[C@H]([C@@H](C)CC)NC(=O)[C@H](CCCNC(=N)N)NC(=O)[C@H](CC(=O)O)NC(=O)[C@@H](CCCC)NC(=O)[C@H](CCCNC(=N)N)NC(=O)CNC(=O)[C@@H](C)NC(=O)[C@H](Cc3ccccc3)NC(=O)[C@H](Cc3c[nH]cn3)NC2=O)NC1=O [1-133] ({Piperazin2one(3S-Bu,6R-CO)}-CHF[dA]GR[dNle]DRISCY-X2; disulfide 1-12)
93
